Would you mind telling me the reported pKi of each entry?
- Target Or Test System: rat striatal 5HT6 receptors (Rattus norvegicus, UniProt P31388)
- Sequence (P31388 whole entry): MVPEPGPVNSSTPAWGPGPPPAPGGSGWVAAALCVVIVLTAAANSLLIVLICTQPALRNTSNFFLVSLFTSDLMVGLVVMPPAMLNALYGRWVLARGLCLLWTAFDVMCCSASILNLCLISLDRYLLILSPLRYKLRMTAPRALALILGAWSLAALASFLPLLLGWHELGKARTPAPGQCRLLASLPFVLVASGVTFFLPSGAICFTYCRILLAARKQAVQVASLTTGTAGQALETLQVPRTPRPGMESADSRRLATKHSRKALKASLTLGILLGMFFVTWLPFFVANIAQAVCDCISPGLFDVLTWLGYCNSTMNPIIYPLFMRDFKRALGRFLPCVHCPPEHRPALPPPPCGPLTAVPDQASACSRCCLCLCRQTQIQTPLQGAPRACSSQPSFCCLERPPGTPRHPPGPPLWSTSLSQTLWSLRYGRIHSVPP
pKi is defined as minus the log10 of a concentration measured in mol/L.

**Q:** Recorded pKi for COc1ccc(NS(=O)(=O)c2cccc(Br)c2)c2c1C[C@@H](N(C)C)CO2 with rat striatal 5HT6 receptors (Rattus norvegicus, UniProt P31388), please?
**A:** 8.12

**Q:** Now consider COc1ccc(NS(=O)(=O)c2ccc(-c3ccnc(SC)n3)s2)c2c1C[C@@H](N(C)C)CO2 .
**A:** 7.31

**Q:** And CN(C)[C@H]1CCc2c(cccc2NS(=O)(=O)c2cccc(Br)c2)C1 ?
**A:** 7.13

**Q:** And for COc1ccc(NS(=O)(=O)c2ccccc2-c2ccccc2)c2c1C[C@@H](N(C)C)CO2 ?
**A:** 8.70

* * *

pKi, rat striatal 5HT6 receptors (Rattus norvegicus, UniProt P31388), per-entry values.
Value format note: pKi is -log10 of concentration (mol/L); just state the number.

**Q:** Using the record for COc1ccc(NS(=O)(=O)c2ccc3ccccc3c2)c2c1C[C@@H](N(C)C)CO2 [Example 24] , report its pKi.
**A:** 7.38

**Q:** Check COc1ccc(NS(=O)(=O)c2ccccc2-c2ccccc2)c2c1C[C@@H](N(C)C)CC2 [Example 176] too.
**A:** 7.89

**Q:** Also COc1ccc(NS(=O)(=O)c2cc(Cl)cc(Cl)c2)c2c1C[C@@H](N1CCCC1)CC2 [Example 313] ?
**A:** 6.54
